test system: Streptococcus pneumoniae; test: Minimum inhibitory concentration (MIC) by agar dilution; assay type: cell-based; conditions: in vitro, agar dilution (NCCLS 1993), Streptococcus pneumoniae strain SPNE 9912; read-out: Antibacterial Activity Minimum Inhibitory Concentration SPNE 9912
Examples of compounds with documented MIC follow.
Note: unit µg/mL is implicit; provide only the numeric part.

Below are worked cases with known answers.
For the compound CC(=O)NC[C@H]1CN(c2ccc3c(c2)CCN(c2nnc(NC=O)s2)CC3)C(=O)O1 , report MIC.
0.5

Using known records, supply MIC for CC(=O)CCCC(=O)N1CCc2ccc(N3C[C@H](CNC(C)=O)OC3=O)cc2CC1
1

Read off the recorded MIC for CC(=O)NC[C@H]1CN(c2ccc3c(c2)CSCC3)C(=O)O1
0.5

Identify MIC associated with the compound CC(=O)NC[C@H]1CN(c2ccc3c(c2)C[S+]([O-])CC3)C(=O)O1 (stereo partly drawn)
2

Dear colleague, please send me the reported MIC for CC(=O)NC[C@H]1CN(c2ccc3c(c2)CCN(C(C)=O)CC3)C(=O)O1 when you can.
1

Kindly indicate its recorded MIC. Item: CC(=O)NC[C@H]1CN(c2ccc3c(c2)CCN(C(=O)Cc2ccccc2)CC3)C(=O)O1
1

Please give the documented MIC of CC(=O)NC[C@H]1CN(c2ccc3c(c2)CCS(=O)(=O)CC3)C(=O)O1
8

Entry CC(=O)NC[C@H]1CN(c2ccc3c(c2)CCCN(C(C)=O)C3)C(=O)O1 needs its MIC filled in; supply it.
2

Check the records and state MIC for CC(=S)NC[C@H]1CN(c2ccc3c(c2)CCOC3)C(=O)O1
1

Give MIC for CC(=S)NC[C@H]1CN(c2ccc3c(c2)COCC3)C(=O)O1
1

Continuing:
Report measured MIC; entry is CC(=S)NC[C@H]1CN(c2ccc3c(c2)CS(=O)(=O)CC3)C(=O)O1
1

Report MIC, nothing else, for this compound: CC(=O)NC[C@H]1CN(c2ccc3c(c2)CCSC3)C(=O)O1
1

Provide MIC value for the following compound: CC(=O)NC[C@H]1CN(c2ccc3c(c2)CCN(c2nnc(NC(=O)CO)s2)CC3)C(=O)O1
0.5

Specify reported MIC for the compound shown: CC(=O)NC[C@H]1CN(c2ccc3c(c2)CCN(C=O)C3)C(=O)O1
1

Quickly give me recorded MIC for COC(=O)N1CCc2cc(N3C[C@H](CNC(C)=O)OC3=O)ccc2C1
1

====

Listed next: entries and their corresponding MIC.
system: Streptococcus pneumoniae; assay: Minimum inhibitory concentration (MIC) by agar dilution; assay type: cell-based; settings: in vitro, agar dilution (NCCLS 1993), Streptococcus pneumoniae strain SPNE 9912; read-out: Antibacterial Activity Minimum Inhibitory Concentration SPNE 9912

Solved cases below.
Output measured MIC for this item: CC(=O)NC[C@H]1CN(c2ccc3c(c2)CCN(C(=O)Oc2ccccc2)CC3)C(=O)O1
2 µg/mL

Using known records, supply MIC for CC(=S)NC[C@H]1CN(c2ccc3c(c2)CCSCC3)C(=O)O1
0.5 µg/mL

Provide one value: measured MIC of CC(=O)NC[C@H]1CN(c2ccc3c(c2)CCN(S(C)(=O)=O)CC3)C(=O)O1
4 µg/mL

Indicate the recorded MIC value for this molecule: CC(=S)NC[C@H]1CN(c2ccc3c(c2)CN(C=O)CC3)C(=O)O1
1 µg/mL

Continuing:
Please report the measured MIC for CC(=S)NC[C@H]1CN(c2ccc3c(c2)CN(C(=O)CO)CC3)C(=O)O1
2 µg/mL

Fill in MIC for record CC(=S)NC[C@H]1CN(c2ccc3c(c2)CCS(=O)(=O)CC3)C(=O)O1
1 µg/mL
